# pest or weed control at 5 µg/cm2 values compiled below
Test system: adult cat fleas (Ctenocephalides felis)
Assay: Ctenocephalides felis in-vitro contact test, adult cat flea
Format: in vivo
Details: application rate 5 μg/cm^2 (=500 g/ha), after 48 hours, read-out: activity (efficacy: fleas dead or moribund)
Include the unit after the number when you answer.

# count of solved cases: 5
{"COMPOUND": "C[C@H](NC(=O)c1cc(OC(F)(F)F)cc(C2CC2)c1)c1ncnn1-c1ccc(Cl)cn1 [II-23]", "pest or weed control at 5 µg/cm2": "100%"}
{"COMPOUND": "C[C@H](NC(=O)c1cc(Cl)cc(S(=O)(=O)C(F)F)c1)c1ncnn1-c1ccc(C#N)cn1 [II-17]", "pest or weed control at 5 µg/cm2": "100%"}
{"COMPOUND": "C[C@H](NC(=O)c1cc(C(F)(F)F)cc(C2(C#N)CC2)c1)c1ncnn1-c1ccc(Cl)cn1 [II-48]", "pest or weed control at 5 µg/cm2": "90%"}
{"COMPOUND": "Cc1nc([C@H](C)NC(=O)c2cc(Cl)cc(S(=O)(=O)C(F)(F)F)c2)n(-c2ccc(C#N)cn2)n1 [II-15]", "pest or weed control at 5 µg/cm2": "90%"}
{"COMPOUND": "C[C@H](NC(=O)c1cc(Br)cc(S(C)(=O)=O)c1)c1ncnn1-c1ccc(Cl)cn1 [II-40]", "pest or weed control at 5 µg/cm2": "100%"}

// pest or weed control at 5 µg/cm2 lookup, compound = Cc1nc([C@H](C)NC(=O)c2csc(Cl)c2)n(-c2ccc(C#N)cn2)n1 [II-8] , result: 100%

// pest or weed control at 5 µg/cm2 lookup, compound = C[C@H](NC(=O)c1cc(Cl)cc(S(C)(=O)=O)c1)c1ncnn1-c1ncc(OC(F)F)cn1 [II-42] , result: 100%

// pest or weed control at 5 µg/cm2 lookup, compound = Cc1nc([C@H](C)NC(=O)c2cc(Cl)cc(S(=O)(=O)C(F)(F)F)c2)n(-c2ccc(Cl)cn2)n1 [II-14] , result: 90%

// pest or weed control at 5 µg/cm2 lookup, compound = CC(NC(=O)c1cc(Cl)cc(S(C)(=O)=O)c1)c1nc(C(F)F)nn1-c1ncccn1 (centres unmarked) [I-5] , result: 80%
